Cited source: patent US20260242478A1

- experimental target: T1, PSMA Fab
- T1 construct: Biotinylated and captured on neutravidin plates in the phage ELISA; also called Anti-PSMA Fab; 006 PSMA Fab
- assay text: clonal phage ELISA on biotinylated PSMA Fab captured on neutravidin plates, anti-M13-HRP detection; blocking buffer alone
Where no end group is shown, it is not given here.
assay metric: Phage binding ELISA signal, Anti-PSMA Fab
Reply with the value as a number alone.

PVPLCRPPWMCQSV (cysteine pairing not given here; also: fused to phage pIII, linker and fusion site not given here, Clonal phage of the Peptide-180 library, tested as crude supernatant; not shown: pIII coat protein of the bacteriophage to which the peptide is fused) [Phage-2533] : 1.16

Item: LMNWCIPSWMCDVE (cysteine pairing not given here; also: fused to phage pIII, linker and fusion site not given here, Clonal phage of the Peptide-180 library, tested as crude supernatant; not shown: pIII coat protein of the bacteriophage to which the peptide is fused) [Phage-2539] | Phage binding ELISA signal, Anti-PSMA Fab: 1.15

Item: VTHWCIPEWMCVVE (cysteine pairing not given here; also: fused to phage pIII, linker and fusion site not given here, Clonal phage of the Peptide-180 library, tested as crude supernatant; not shown: pIII coat protein of the bacteriophage to which the peptide is fused) [Phage-2530] | Phage binding ELISA signal, Anti-PSMA Fab: 1.17

Item: DWKWCTPAWMCSTE (cysteine pairing not given here; also: fused to phage pIII, linker and fusion site not given here, Clonal phage of the Peptide-180 library, tested as crude supernatant; not shown: pIII coat protein of the bacteriophage to which the peptide is fused) [Phage-2535] | Phage binding ELISA signal, Anti-PSMA Fab: 1.16
